Test system: Micrococcus luteus
Test: Compound was tested for its minimal inhibitory constant against Gram-positive microorganism Micrococcus luteus ATCC 9341 (MI)
Format: functional
PROPERTY NAME: MIC (µg/mL)
Just the number please, in µg/mL, no unit attached.

Consider the reported MIC for these compounds:
COMPOUND | PROPERTY NAME | UNIT DESCRIPTOR | RECORDED NUMBER
CN1Cc2csc3c(C(=O)O)c(=O)c4cc(F)c(N5CCOC(CCl)C5)c1c4n23 (centres undefined) | MIC | µg/mL | 0.05
CN1Cc2csc3c(C(=O)O)c(=O)c4cc(F)c(N5CCOC(CO)C5)c1c4n23 (centres undefined) | MIC | µg/mL | 0.2

Q) Which measured MIC value corresponds to CNCC1CN(c2c(F)cc3c(=O)c(C(=O)O)c4scc5n4c3c2N(C)C5)CCO1 (centres undefined) ?
A) 0.78

---

System: Pseudomonas aeruginosa
Test: Compound was tested for its minimal inhibitory constant against Gram-negative microorganism Pseudomonas aeruginosa E-2 (Pa(E))
Assay type: functional
Recorded MIC, one value per entry.
Just the number please, in µg/mL, no unit attached.

Q) Which measured MIC value corresponds to CN1Cc2csc3c(C(=O)O)c(=O)c4cc(F)c(N5CCOC(CCl)C5)c1c4n23 (configuration not stated) ?
A) 1.56

---

System: Staphylococcus aureus
Experiment: Tested for in vitro for antibacterial activity against 16 clinical isolated of methicillin-resistant Staphylococcus aureus
Assay type: functional
Recorded MIC90, one value per entry.
Just the number please, in mg/L, no unit attached.

Consider the reported MIC90 for these molecules:
MOLECULE | SYSTEM | PROPERTY NAME | RECORDED NUMBER
CC1COc2c(N3CCN(C)CC3)c(F)cc3c(=O)c(C(=O)O)cn1c23 (centres undefined) | Staphylococcus aureus | MIC90 | 50
CN1Cc2csc3c(C(=O)O)c(=O)c4cc(F)c(N5CCOCC5)c1c4n23 | Staphylococcus aureus | MIC90 | 0.2
CC1CN(c2c(F)cc3c(=O)c(C(=O)O)c4scc5n4c3c2N(C)C5)CCO1 (centres undefined) | Staphylococcus aureus | MIC90 | 0.2

Q) Which measured MIC90 value corresponds to CN1Cc2csc3c(C(=O)O)c(=O)c4cc(F)c(N5CCOC(CCl)C5)c1c4n23 (centres undefined) ?
A) 0.2

---

Tested on: Micrococcus luteus
Assay: Compound was tested for its minimal inhibitory constant against Gram-positive microorganism Micrococcus luteus ATCC 9341 (MI)
Format: functional
PROPERTY NAME: MIC (µg/mL)
Just the number please, in µg/mL, no unit attached.

Consider the reported MIC for these compounds:
COMPOUND | UNIT DESCRIPTOR | MIC
COCC1CN(c2c(F)cc3c(=O)c(C(=O)O)c4scc5n4c3c2N(C)C5)CCO1 (stereo unspecified) | µg/mL | 0.2
CN1Cc2csc3c(C(=O)O)c(=O)c4cc(F)c(N5CCOCC5)c1c4n23 | µg/mL | 0.1
CC1CN(c2c(F)cc3c(=O)c(C(=O)O)c4scc5n4c3c2N(C)C5)CCO1 (stereo unspecified) | µg/mL | 0.1
COC[C@H]1CN(c2c(F)cc3c(=O)c(C(=O)O)c4scc5n4c3c2N(C)C5)CCO1 | µg/mL | 0.2

Q) Which measured MIC value corresponds to CCC1CN(c2c(F)cc3c(=O)c(C(=O)O)c4scc5n4c3c2N(C)C5)CCO1 (stereo unspecified) ?
A) 0.2

Q) Which measured MIC value corresponds to `COC[C@@H]1CN(c2c(F)cc3c(=O)c(C(=O)O)c4scc5n4c3c2N(C)C5)CCO1` ?
A) 0.2
